target_under_test: T1, Bfl-1, Q16548
T1 chain: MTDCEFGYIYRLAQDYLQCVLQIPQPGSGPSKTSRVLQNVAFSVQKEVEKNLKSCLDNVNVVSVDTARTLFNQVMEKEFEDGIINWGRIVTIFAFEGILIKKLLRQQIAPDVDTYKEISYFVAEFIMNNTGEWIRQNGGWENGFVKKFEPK
method_notes: peptide SPOT array, c-Myc-tagged receptor at 1 uM or 100 nM, anti-c-Myc-Cy3
endpoint_name: SPOT signal as a fraction of Bim BH3's signal on the same receptor and array

binder	reported
SMRRNAMGVGDVFEADLFTTRHISHW [DNAH10]	0.09
IGQRQTVVRTLNATGEEIIQQSSKTD [DMD]	0.03
KEVEDCVPVFLKHIAHDIYVCGKTIN [TUBGCP6]	0.03
MPYMEAVIHEIQRFLDVIPMSLARRV [CYP2A6]	0.06
TAGLRPGARLLRVCLQTLPSLRPEAA [SIPA1]	0.57

a = HQAEVQIARKDQCIADQFHRLHVQQH [BMF]
b = NKDGKSVSNRLRRLSDNCGGKVLSIT [KIAA0430]
c = PAKKMTLSEIYRWICDNFPYYKNAGI [FOXJ2]
**Q:** Order the records by SPOT signal as a fraction of Bim BH3's signal on the same receptor and array, with each subsequent value no larger than the one before. API: response body holds the labels in the requested order.
**A:** c, b, a
(c: 0.54, b: 0.31, a: 0.01)

Data credit: paper PMC4072508
